biological target: human His-PIM2 [23-299] (Homo sapiens, UniProt Q9P1W9); construct: purified human His-PIM2 [23-299] enzyme; His (N); host or cells: E. coli; assay: PIM2 in-vitro mobility shift assay (Caliper LC3000, FL-Ahx-Bad phosphorylation); assay type: biochemical; conditions: 1.5 h; percent inhibition at 0.3 uM compound; read-out: PIM2 % I at 0.3 uM
Sequence (Q9P1W9 23-299): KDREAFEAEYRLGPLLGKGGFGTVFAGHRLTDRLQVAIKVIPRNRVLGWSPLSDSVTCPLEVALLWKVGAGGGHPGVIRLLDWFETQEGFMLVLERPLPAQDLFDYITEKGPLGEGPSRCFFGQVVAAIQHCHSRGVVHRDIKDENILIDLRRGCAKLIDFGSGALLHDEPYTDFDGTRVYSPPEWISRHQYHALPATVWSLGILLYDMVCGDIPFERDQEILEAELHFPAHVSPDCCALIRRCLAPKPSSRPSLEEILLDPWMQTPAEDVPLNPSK
Counter-ions that a name gives are not always drawn.
inhibition at 0.3 µM values, listed per item
Readout Kind: inhibition at 0.3 µM (%)

In [3]: df
Out[3]:
                                   compound          readout_kind  units_label  reported_relation  value_observed
0         Cn1ccc2cc(/C=C3\SC(=O)NC3=O)ccc21  inhibition at 0.3 µM            %                  =            27.6
1               O=C1NC(=O)/C(=C/c2ccncc2)S1  inhibition at 0.3 µM            %                  <               5
2  CN(C)CCCN(C)c1c(Cl)cc(C(F)(F)F)cc1/C=C1\SC(=O)NC1=O  inhibition at 0.3 µM            %                  =            68.4
3  CN(C)[C@H]1CCN(c2c(F)cccc2C=C2SC(=O)NC2=O)C1 [Example 84N]  inhibition at 0.3 µM            %                  =            81.4
4  COc1cc(/C=C2\SC(=O)NC2=O)c(N2CC[C@@H](NC(=O)CCCCN)C2)cc1OC [Example 119, hydrochloride]  inhibition at 0.3 µM            %                  =            20.1
5  O=C1NC(=O)/C(=C/c2cc(C(F)(F)F)ccc2N2CCNCC2)S1 [Example 87, hydrochloride]  inhibition at 0.3 µM            %                  =            84.2
6  N[C@@H]1CCCN(c2c(/C=C3\SC(=O)NC3=O)cccc2OC2CCC2)C1 [Example 122AD, hydrochloride]  inhibition at 0.3 µM            %                  >              95
7  NCCC(=O)N1CCN(c2ccccc2/C=C2\SC(=O)NC2=O)CC1 [Example 129A]  inhibition at 0.3 µM            %                  >              95

###

biological target: human His-PIM1 [2-313] (Homo sapiens); construct: purified human His-PIM1 [2-313] enzyme; His (N); purchased University of Dundee, Scotland; host or cells: baculovirus system; test: PIM1 in-vitro mobility shift assay (Caliper LC3000, FL-Ahx-Bad phosphorylation); type: biochemical; conditions: 1.5 h; percent inhibition at 0.3 uM compound; read-out: PIM1 % I at 0.3 uM
Sequence (P11309 2-313): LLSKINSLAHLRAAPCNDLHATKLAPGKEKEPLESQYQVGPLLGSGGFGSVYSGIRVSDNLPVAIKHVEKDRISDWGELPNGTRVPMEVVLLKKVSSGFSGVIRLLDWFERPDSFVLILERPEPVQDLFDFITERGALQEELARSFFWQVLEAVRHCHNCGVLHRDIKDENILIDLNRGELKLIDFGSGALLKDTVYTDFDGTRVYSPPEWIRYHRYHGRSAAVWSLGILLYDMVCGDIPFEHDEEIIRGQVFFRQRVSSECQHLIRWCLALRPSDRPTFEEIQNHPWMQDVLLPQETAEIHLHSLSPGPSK
Structures can show the parent of a compound that is named as a salt.
Readout Kind: inhibition at 0.3 µM

                                   compound                            test_system  value_observed
0  NC(=O)c1ccc(N2CCC[C@H](N)C2)c(/C=C2\SC(=O)NC2=O)c1 [Example 122AF, hydrochloride]  human His-PIM1 [2-313] (Homo sapiens)           83.9%
1  CN(C)CCCN(C)c1c(Cl)cc(C(F)(F)F)cc1/C=C1\SC(=O)NC1=O [Example 25]  human His-PIM1 [2-313] (Homo sapiens)           > 95%
2  O=C1NC(=O)/C(=C/c2ccccc2OCCO)S1 [Example 60]  human His-PIM1 [2-313] (Homo sapiens)           35.4%
3  O=C1NC(=O)/C(=C/c2cccc(Cl)c2N2CCC[C@@H](NCCO)C2)S1 [Example 133]  human His-PIM1 [2-313] (Homo sapiens)           > 95%
4  Cn1nnc2cc(/C=C3\SC(=O)NC3=O)ccc21 [Example 73]  human His-PIM1 [2-313] (Homo sapiens)            < 5%
5  N[C@@H]1CCCN(c2c(/C=C3\SC(=O)NC3=O)cccc2OC2CCCC2)C1 [Example 122AC, hydrochloride]  human His-PIM1 [2-313] (Homo sapiens)           > 95%
6  O=C1NC(=O)/C(=C/c2cc(C(F)(F)F)cc(Cl)c2N2CCCNCC2)S1 [Example 5A]  human His-PIM1 [2-313] (Homo sapiens)           > 95%
7  NCCC(=O)N1CCN(c2c(Cl)cccc2/C=C2\SC(=O)NC2=O)CC1 [Example 95, hydrochloride]  human His-PIM1 [2-313] (Homo sapiens)           > 95%
